tested on: PSMA^+ PC-3 PIP tumors; experiment: MicroPET/CT imaging of mice transplanted with prostate cancer cell lines; type: in vivo, nude mouse; details: 40 min after injection
MEASURED PARAMETER: intake of mouse organ: Kidney (% ID/g)
Numbers only, in % ID/g.

O=C(O)CCC(NC(=O)NC(CCCCN(CC(=O)O)C(=O)COCCOCCNC(=O)C(CCCCNC(=O)CCCc1ccc(I)cc1)NC(=O)CN1CCN2CCN3CCN(CC1)CC(=O)[O][68Ga]([O]C(=O)C2)[O]C(=O)C3)C(=O)O)C(=O)O (stereo not shown) [[^68Ga]1h]: 13.51

Report intake of mouse organ: Kidney for every entry below.
1. Cc1ccc(CCCC(=O)NCCCCC(NC(=O)CN2CCN3CCN4CCN(CC2)CC(=O)[O][68Ga]([O]C(=O)C3)[O]C(=O)C4)C(=O)NCCOCCOCC(=O)N(CCCCC(NC(=O)NC(CCC(=O)O)C(=O)O)C(=O)O)CC(=O)O)cc1 (stereo not shown) [[^68Ga]1g]
2. O=C(O)CCC(NC(=O)NC(CCCCN(CC(=O)O)C(=O)COCCOCCNC(=O)CN1CCN2CCN3CCN(CC1)CC(=O)[O][68Ga]([O]C(=O)C2)[O]C(=O)C3)C(=O)O)C(=O)O (stereo not shown) [[^68Ga]1e]

## Result
1: 22.74; 2: 14.92

## Task Please give the measured intake of mouse organ: Kidney for this molecule: O=C(O)CCC(NC(=O)NC(CCCCN(CC(=O)O)C(=O)COCCNC(=O)C(CCCCNC(=O)CCCc1ccc(I)cc1)NC(=O)CN1CCN2CCN3CCN(CC1)CC(=O)[O][68Ga]([O]C(=O)C2)[O]C(=O)C3)C(=O)O)C(=O)O (stereo not shown) [[^68Ga]1k]
## Result 11.06
